# Tested on: SK-OV-3
# experiment-notes: NCI tumour cell line growth inhibition, 48 h
Activity calls are given as the source filed them. Rule as the data show it: active = GI50 up to about 1.1 µM and inactive = higher.
Would you mind answering with one of these outcomes? active, inactive

Previously resolved entries follow.
{"columns": ["molecule", "label-class"],
 "data": [
  ["CC(C)(C)Sc1nnc(SC(C)(C)C)c2c(SC(C)(C)C)nnc(O)c12", "inactive"],
  ["COc1cc(Nc2n[nH]c(NS(=O)(=O)c3cc(C)c(Cl)cc3S)n2)cc(OC)c1OC", "inactive"],
  ["OC(c1ccccc1Br)(c1ccccc1Br)C(F)(F)F", "inactive"],
  ["CCOC(=O)c1cnc(-n2[nH]c3c(c2=O)CCCC3)[nH]c1=O", "inactive"],
  ["O=C(O)CSc1nnc(CCCCCCCCc2nnc(SCC(=O)O)o2)o1", "inactive"]
]}

API: the following record is the query input.
Request: Assay result, entry O=C1c2cccnc2-c2nccc3c2c1nc1ccccc13 [ASCIDIDEMIN] — outcome?
Result: active

---

# Test system: K562
# experiment-notes: NCI tumour cell line growth inhibition, 48 h
Activity calls are given as the source filed them. Rule as the data show it: active = GI50 up to about 1.1 µM and inactive = higher.
Output constraint: value belongs to True for active, False for inactive

Answered examples (5):
{"columns": ["molecule", "label-class"],
 "data": [
  ["Cc1nc2[nH]ncn2c(=O)c1CCCl", "False"],
  ["COc1ccc(/N=c2/oc3ccccc3cc2C(N)=O)cc1", "False"],
  ["COc1ccc(Nc2nc(N)c(C(=O)c3cccs3)s2)cc1", "False"],
  ["COc1ccc(/C(Cl)=C(\\C=O)c2ccccc2)cc1OC", "False"],
  ["Oc1nnc2c(-c3ccccc3)n[nH]c2n1", "False"]
]}

Request: Tell me the assay call for "Cn1c2c(c3ccccc31)CCN(CCCCN1CCN(c3ccccc3)CC1)C2=O" please.
Result: False

Request: Could you please tell me the result logged for "C[C@@H]1C[C@H](O)[C@]2(O)O[C@@H]3C[C@@]4(C=O)[C@@H](CC[C@@H]5[C@@H]4CC[C@]4(C)[C@@H](C6=CC(=O)OC6)CC[C@]54O)C[C@H]3O[C@@H]2O1" in this assay?
Result: True

Request: How was "CC(=O)O[C@H]1CC[C@H]2[C@@H]3CCC4=C/C(=N/OCCN(C)C)CC[C@]4(C)[C@H]3CC[C@]12C" classified in this test?
Result: False

Request: Assay outcome for "COc1cc([N+](=O)[O-])ccc1NC1=CC(=O)CCC1" : what was it?
Result: False

Request: // return assay outcome for COC(=O)[C@H]1C[C@H]1NC(=O)C(CC(=O)OCc1ccccc1)NC(=O)OCc1ccccc1 (stereo partly specified)
Result: False

Request: Per the records of this test, what outcome belongs to "O=[N+]([O-])c1cc(F)ccc1S(=O)(=O)c1ccccc1" ?
Result: False

Request: Please state the recorded outcome for this molecule: "CC1=C(NC(=O)C(=O)NNC(=O)c2ccncc2)C(=O)c2ccccc2C1=O"
Result: False

Request: Call for entry "Cc1cccc2nc3n(c12)C(=O)c1ccccc1-3" :
Result: False

Request: Given CC1SC2=NC3=C(c4ccccc4C3=O)C(c3ccc(F)cc3)N2C1=O (stereo unspecified) , state the outcome it received in this test.
Result: False

Request: How did this test come out for c1ccc2c(C3CCN(CCN4CCOCC4)C3)c[nH]c2c1 (stereo unspecified) ?
Result: False

Request: I would be grateful if you could indicate the recorded call for O=C(O)NC(c1ccccc1)C(NC(=O)c1ccccc1)c1ccccc1 (stereo unspecified) .
Result: False

Request: GET /call?item= "C=C1C(=O)O[C@@H]2/C=C(/C)[C@@H](OC(C)=O)C[C@@H](O)/C(C)=C\[C@@H](OC(=O)[C@]3(C)O[C@@H]3C)[C@@H]12" returns the recorded outcome of this test.
Result: False
